The measured values listed here are drawn from paper PMC3738144.

- assay.notes: Plasma pharmacokinetics of lenvatinib, carboplatin and paclitaxel
- Format: in vivo
- assay.setup: human, intravenous, t1/2, paclitaxel 200 mg m^−2, with lenvatinib 4 mg BID (n=6), mean±s.d.
recorded.metric: half-life (h)

INSERT INTO assay_data (compound, output_unit, numeric_value) VALUES
  ('CC(=O)O[C@H]1C(=O)[C@@]2(C)[C@H]([C@H](OC(=O)c3ccccc3)[C@]3(O)C[C@H](OC(=O)[C@H](O)[C@@H](NC(=O)c4ccccc4)c4ccccc4)C(C)=C1C3(C)C)[C@]1(OC(C)=O)CO[C@@H]1C[C@@H]2O [Paclitaxel, reference compound]', 'h', 6.65);
